# Method: Residual rate of the active substance in monomer solution (HPLC)
# Assay type: physicochemical
# Measurement Context: in 2-Ethylhexyl Acrylate; 25° C.
Quick reference: Residual Rate (% by weight) after 7 Days of the listed items.
Number only, in % by weight; omit the unit.

Consider the reported Residual Rate (% by weight) after 7 Days for these compounds:
COc1ccc2c(c1)c(CC(=O)O)c(C)n2C(=O)c1ccc(Cl)cc1 [IMT, indomethacin] : 100
CC(C)(C)NCC(O)c1ccccc1Cl (stereo not shown) [TB, tulobuterol] : 88
COc1ccc(OC)c(C(O)CN)c1 (stereo not shown) [DMAE, 2-amino-1-(2′,5′-dimethoxyphenyl)ethanol] : 11

Proceed to the following item.
Recall and state the measured Residual Rate (% by weight) after 7 Days for O=[N+]([O-])O[C@H]1CO[C@H]2[C@@H]1OC[C@H]2O[N+](=O)[O-] [ISDN, isosorbide dinitrate] .
100

* * *

# Method: Solvency of the active substance in monomers (visual inspection)
# Format: physicochemical
# Set-up: key: Excellent: The active substance was not found to have been precipitated in the solution of active substance both immediately after the preparation and after the preservation for 7 days.; Good: The active substance was found to have been precipitated in the solution of active substance immediately after the preparation, but the active substance was not found to have been precipitated in the solution of active substance after the preservation for 7 days.; Poor: The active substance was found to have been precipitated in the solution of active substance both immediately after the preparation and after the preservation for 7 days
# Measurement Context: 3 parts active substance in 100 parts Butyl Acrylate; 25° C., 7 days
Assay Metric: Solvency of the active substance

COc1ccc2c(c1)c(CC(=O)O)c(C)n2C(=O)c1ccc(Cl)cc1 : Poor
COc1ccc(OC)c(C(O)CN)c1 (stereo not shown) : Good
CC(C)(C)NCC(O)c1ccccc1Cl (stereo not shown) : Excellent
O=[N+]([O-])O[C@H]1CO[C@H]2[C@@H]1OC[C@H]2O[N+](=O)[O-] [ISDN, isosorbide dinitrate] : Excellent

* * *

# Method: Solvency of the active substance in monomers (visual inspection)
# Assay type: physicochemical
# Parameters: key: Excellent: The active substance was not found to have been precipitated in the solution of active substance both immediately after the preparation and after the preservation for 7 days.; Good: The active substance was found to have been precipitated in the solution of active substance immediately after the preparation, but the active substance was not found to have been precipitated in the solution of active substance after the preservation for 7 days.; Poor: The active substance was found to have been precipitated in the solution of active substance both immediately after the preparation and after the preservation for 7 days
# Measurement Context: 3 parts active substance in 100 parts 1-Vinyl-2-Pyrrolidone; 25° C., 7 days
Assay Metric: Solvency of the active substance

COc1ccc(OC)c(C(O)CN)c1 (stereo not shown) : Poor
O=[N+]([O-])O[C@H]1CO[C@H]2[C@@H]1OC[C@H]2O[N+](=O)[O-] [ISDN, isosorbide dinitrate] : Excellent
COc1ccc2c(c1)c(CC(=O)O)c(C)n2C(=O)c1ccc(Cl)cc1 : Excellent
CC(C)(C)NCC(O)c1ccccc1Cl (stereo not shown) : Excellent

* * *

# Method: Residual rate of the active substance in monomer solution (HPLC)
# Type: physicochemical
# Measurement Context: in Butyl Acrylate
Each entry below lists one item and its recorded Residual Rate (% by weight) Immediately after Preparation value.
Reply with just the number (in % by weight).

// known answers, use as guide
O=[N+]([O-])O[C@H]1CO[C@H]2[C@@H]1OC[C@H]2O[N+](=O)[O-] [ISDN, isosorbide dinitrate] : 100
CC(C)(C)NCC(O)c1ccccc1Cl (stereo not shown) : 100

Item COc1ccc2c(c1)c(CC(=O)O)c(C)n2C(=O)c1ccc(Cl)cc1 : provide Residual Rate (% by weight) Immediately after Preparation
100

Name the recorded Residual Rate (% by weight) Immediately after Preparation of the compound listed here: COc1ccc(OC)c(C(O)CN)c1 (stereo not shown)
27
